B1: PLAGL1 (parent)
chain: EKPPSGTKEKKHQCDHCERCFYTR

Variants of: B1
experiment_notes: protein stability index of a GFP-peptide fusion (GPS, HEK-293T) (PSI 1-6); higher = more stable;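 further: lentivirally expressed fusions sorted by FACS into six bins by GFP to DsRed ratio, PSI derived from sequencing read proportions per bin multiplied by bin number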
test_conditions: c terminus: a fixed tail appended
recorded_metric: protein stability index
Just the number, please, no unit after it.

{"mutant_designation": "P4S", "protein stability index": 3.99}

// switching to the query variant
Looking up `C14Q` , I found its protein stability index recorded as 4.06

Just for reference, the supplement of paper PMC10567573 is where these values come from.
